Would you mind telling me the reported growth AUC of each entry?
- Tested on: Roseburia intestinalis
- assay_procedure: growth AUC relative to DMSO control (median of replicates) (fraction); higher = more growth (less inhibition), active = hit call of the paper
- condition_label: 20 µM; 24 h
One number for each entry.

{"compound_structure_string": "c1ccc(Nc2ccccc2)cc1", "growth AUC": 1.01}
{"compound_structure_string": "CC(C)N(C(=O)C(=O)O)c1ccc(F)cc1", "growth AUC": 0.998}
{"compound_structure_string": "Cc1nn(C)c(Oc2ccccc2)c1/C=N/OCc1ccc(C(=O)OC(C)(C)C)cc1", "growth AUC": 0.924}

Hi! Can you tell me growth AUC for each of these compounds?
1. COCCN(C(=O)CO)c1c(C)cccc1C(=O)O
2. N#Cc1ccccc1NC(=O)c1snc(Cl)c1Cl

## Output
[1.01, 0.992]

## Input Looking for the measured growth AUC of CCCCN(C)C(=O)Nc1ccc(Cl)c(Cl)c1 , can you help?
## Output 0.956

---

- Tested on: Escherichia coli ED1a
- assay_procedure: growth AUC relative to DMSO control (median of replicates) (fraction); higher = more growth (less inhibition), active = hit call of the paper
- condition_label: 20 µM; 24 h
endpoint: growth AUC
Numbers only.

Hi! Can you tell me growth AUC for each of these compounds?
1. COc1cc(OC)c(Cl)cc1N
2. CCCCCCCC(=O)Oc1c(Br)cc(C#N)cc1Br
3. N[C@@H](Cc1cc(I)c(Oc2cc(I)c(O)c(I)c2)c(I)c1)C(=O)O
4. CCCCOC(=O)[C@@H](C)Oc1ccc(Oc2ccc(C(F)(F)F)cn2)cc1
5. CCOC(=O)Cn1c(=O)sc2cccc(Cl)c21

## Output
1. 1
2. 0.973
3. 0.959
4. 0.989
5. 1.01

## Input Looking for the measured growth AUC of [S] , can you help?
## Output 0.976

---

- System: Parabacteroides merdae
- assay_procedure: growth AUC relative to DMSO control (median of replicates) (fraction); higher = more growth (less inhibition), active = hit call of the paper
- condition_label: 20 µM; 24 h
endpoint: growth AUC
Answers are plain numbers.

Completed entries (count: 2):
{"compound": "CCCCCCC(C)OC(=O)COc1nc(F)c(Cl)c(N)c1Cl (stereo unspecified)", "readout_value": 0.891}
{"compound": "N#Cc1ccccc1NC(=O)c1snc(Cl)c1Cl", "readout_value": 1.02}

Hi! Can you tell me growth AUC for each of these compounds?
1. CCOc1ccc(C2(C(=O)OC(C#N)c3cccc(Oc4ccccc4)c3)CC2(Cl)Cl)cc1 (stereo unspecified)
2. O=C(O)Cc1c(Cl)ccc(Cl)c1Cl
3. COCCCNc1nc(NC(C)C)nc(SC)n1
4. O=C(NCc1ncc(C(F)(F)F)cc1Cl)c1c(Cl)cccc1Cl

## Output
0.943
1.01
0.992
0.979

---

- System: Lactobacillus paracasei
- assay_procedure: growth AUC relative to DMSO control (median of replicates) (fraction); higher = more growth (less inhibition), active = hit call of the paper
- condition_label: 20 µM; 24 h
Would you mind telling me the reported growth AUC of each entry?
Give bare numbers.

{"compound": "N#Cc1cc(Cl)c(O)c(Cl)c1", "readout_value": 1.03}

Hi! Can you tell me growth AUC for each of these compounds?
1. COc1ccc(Oc2ccc(NC(=O)N(C)C)cc2)cc1
2. N[C@@H](Cc1cc(I)c(Oc2cc(I)c(O)c(I)c2)c(I)c1)C(=O)O

## Output
1: 1.01; 2: 0.886
